Target: TRPML1 (Homo sapiens)
Sequence (Q9GZU1 whole entry L15A/L16A/L577A/L578A, form open): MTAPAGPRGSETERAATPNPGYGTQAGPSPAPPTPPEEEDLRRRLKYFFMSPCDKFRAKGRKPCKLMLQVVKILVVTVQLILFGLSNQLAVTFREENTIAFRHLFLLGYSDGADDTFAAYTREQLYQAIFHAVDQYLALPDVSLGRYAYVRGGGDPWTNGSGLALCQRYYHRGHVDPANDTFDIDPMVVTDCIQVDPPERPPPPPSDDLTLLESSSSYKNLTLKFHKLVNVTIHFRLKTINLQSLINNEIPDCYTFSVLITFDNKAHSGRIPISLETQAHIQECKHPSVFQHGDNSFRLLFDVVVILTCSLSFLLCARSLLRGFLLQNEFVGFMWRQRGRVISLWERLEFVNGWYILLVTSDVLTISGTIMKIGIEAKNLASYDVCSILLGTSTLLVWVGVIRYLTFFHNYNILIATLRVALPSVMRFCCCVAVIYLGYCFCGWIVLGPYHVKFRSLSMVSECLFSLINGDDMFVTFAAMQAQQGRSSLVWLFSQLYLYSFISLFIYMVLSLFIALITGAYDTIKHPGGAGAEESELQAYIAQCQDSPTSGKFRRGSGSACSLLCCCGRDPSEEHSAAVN
Assay: Fluorescent TRPML1 assay (Fluo4-AM calcium fluorescence in doxycycline-induced HEK-293 Trex cells)
Type: cell-based
Reported EC50 values are given for each entry in this list.

// known answers, use as guide
sample_smiles=Cc1cc(C#N)cc(-n2cc(C(F)(F)F)c3c(N4C[C@@H](C)N(C(=O)OC(C)(C)C)C[C@@H]4C)ncnc32)n1 quantity_kind=EC50 measured_value="< 0.1 µM"
sample_smiles=C[C@@H]1CN(c2nccc3c2c(C(F)(F)F)cn3-c2cc(C#N)ccn2)[C@@H](C)CN1C(=O)OC(C)(C)C quantity_kind=EC50 measured_value="< 0.1 µM"
sample_smiles=C[C@@H]1CN(c2nccc3c2c(N2CCC2)cn3-c2cccc(F)c2)[C@@H](C)CN1C(=O)OC(C)(C)C quantity_kind=EC50 measured_value="< 0.1 µM"
sample_smiles=C[C@@H]1CN(c2ncnc3c2c(C(F)(F)F)cn3C2CCCCC2)[C@@H](C)CN1C(=O)OC(C)(C)C quantity_kind=EC50 measured_value="0.1 to 0.5 µM"
sample_smiles=Cc1ccnc(-n2cc(C3CC3)c3c(N4C[C@@H](C)N(C(=O)OC(C)(C)C)C[C@@H]4C)ncnc32)c1 quantity_kind=EC50 measured_value="0.1 to 0.5 µM"
sample_smiles=Cc1cn(-c2cncnc2)c2ncnc(N3C[C@@H](C)N(C(=O)OC(C)(C)C)C[C@@H]3C)c12 quantity_kind=EC50 measured_value="> 2 µM"

Any idea what EC50 was measured for `Cc1cn(-c2cc(F)cc(F)c2)c2ncnc(N3C[C@@H](C)N(C(=O)OC(C)(C)C)C[C@@H]3C)c12` ?
0.1 to 0.5 µM
